The following variants are shown together with reported self-cleavage values.
B1: OR4K15 (parent)
chain: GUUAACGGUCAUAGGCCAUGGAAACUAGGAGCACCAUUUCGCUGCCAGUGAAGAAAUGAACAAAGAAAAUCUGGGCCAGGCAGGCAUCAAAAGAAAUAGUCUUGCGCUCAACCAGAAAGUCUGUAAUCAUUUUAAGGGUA

- Variants of: B1
- TEST_DETAILS: self-cleavage, relative activity (ratio to wild type); higher = more cleavage; in vitro, sequencing; the parent is a self-cleaving ribozyme
Answer using only a numeral; do not append any unit.

# VARIANT_NOTATION, self-cleavage
data = [
    ("A95G A98G", 1.49),
    ("A13G A59G", 0.59),
    ("U57A A116G", 0.94),
    ("C77U U120C", 1.21),
    ("A55G U70C", 0.29),
    ("A60G G99U", 0.38),
]

Req: Provide one value: measured self-cleavage of U9C A86G
Resp: 1.18

Req: Provide one value: measured self-cleavage of U87C G137A
Resp: 2.3
